Biological target: SIX1-Q177R homeodomain (human, UniProt Q15475 108-198, Q177R)
Sequence: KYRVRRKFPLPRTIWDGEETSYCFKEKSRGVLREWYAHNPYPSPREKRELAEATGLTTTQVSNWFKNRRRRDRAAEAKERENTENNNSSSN
Test: universal protein binding microarray; Universal all-10-mer PBM (8x60K, AMADID 030236), 300 nM GST-tagged protein, Alexa Fluor 488 anti-GST; buffer, salt, pH and temperature not stated (as in Berger); high values mean tight binding
Details: protein: ivt; tags: N-terminal GST; dsDNA, one strand shown
Whole data set: some 33,000 sequences, median “e-score” near -0.05, cut for the highest 2% near 0.38. The list comes from a sample in which the highest values are over-represented; it also holds close analogues and randomly drawn sequences.
OBSERVABLE: binding signal (E-score)
Please respond with the number in E-score and leave the unit unwritten.

// worked examples, binding signal included
{"SEQ": "CAACGACA", "binding signal / E-score": 0.197}
{"SEQ": "CACTTACG", "binding signal / E-score": 0.206}
{"SEQ": "ACGGGATC", "binding signal / E-score": 0.197}

Let us examine a further case.
// field: binding signal; key: ATCGGTGC ; value = 0.204

---

Biological target: SIX1-Q177R homeodomain (human, UniProt Q15475 108-198, Q177R)
Sequence: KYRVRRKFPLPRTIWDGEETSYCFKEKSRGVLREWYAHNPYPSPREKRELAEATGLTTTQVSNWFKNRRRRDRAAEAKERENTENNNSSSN
Experiment: universal protein binding microarray; Universal all-10-mer PBM (8x60K, AMADID 030236), 300 nM GST-tagged protein, Alexa Fluor 488 anti-GST; buffer, salt, pH and temperature not stated (as in Berger); high values mean tight binding
Conditions: protein: ivt; tags: N-terminal GST; dsDNA, one strand shown
Over roughly 33,000 sequences, “e-score” has its median near -0.05; the highest 2% begin near 0.38. The list comes from a sample in which the highest values are over-represented; it also holds close analogues and randomly drawn sequences.
OBSERVABLE: binding signal (E-score)
# output: bare number, implied unit E-score

{"SEQ": "CACGAGGG", "OBSERVABLE": "binding signal", "ASSAY_RESULT": 0.189}
{"SEQ": "CCCACGGA", "OBSERVABLE": "binding signal", "ASSAY_RESULT": 0.161}

For this sequence ( CCCCCCCG ), measured binding signal is 0.218

For ACCATCAG the sequence record lists binding signal as 0.181

The reported binding signal of the sequence TACACAAA was 0.247

Recorded binding signal (sequence AAGGGGTC ): 0.17

In plain terms, GGGGTACC has a documented binding signal of 0.247

// AGAGTACA : binding signal value = 0.186

sequence CACGACGG , binding signal observed: 0.182

Sample CACACGGA ; binding signal observed: 0.253

---

This listing pairs sequences with measured binding signal.
Target: SIX1-Q177R homeodomain (human, UniProt Q15475 108-198, Q177R)
Sequence: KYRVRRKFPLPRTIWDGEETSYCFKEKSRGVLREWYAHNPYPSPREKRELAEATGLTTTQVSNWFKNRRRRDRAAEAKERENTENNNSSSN
Experiment: universal protein binding microarray; Universal all-10-mer PBM (8x60K, AMADID 030236), 300 nM GST-tagged protein, Alexa Fluor 488 anti-GST; buffer, salt, pH and temperature not stated (as in Berger); high values mean tight binding
Settings: protein: ivt; tags: N-terminal GST; dsDNA, one strand shown
Over roughly 33,000 sequences, “e-score” has its median near -0.05; the highest 2% begin near 0.38. This excerpt belongs to a sample that is enriched for the highest values.
Field format: number, assumed E-score, no unit text.

Illustrative cases are given below, each with its answer.
{"SEQ": "GGTATACA", "ASSAYED_SYSTEM": "SIX1-Q177R homeodomain (human, UniProt Q15475 108-198, Q177R)", "binding signal (E-score)": 0.269}
{"SEQ": "GGGGTGTA", "ASSAYED_SYSTEM": "SIX1-Q177R homeodomain (human, UniProt Q15475 108-198, Q177R)", "binding signal (E-score)": 0.486}
{"SEQ": "CTGAACAC", "ASSAYED_SYSTEM": "SIX1-Q177R homeodomain (human, UniProt Q15475 108-198, Q177R)", "binding signal (E-score)": 0.422}
{"SEQ": "ATTCGCAA", "ASSAYED_SYSTEM": "SIX1-Q177R homeodomain (human, UniProt Q15475 108-198, Q177R)", "binding signal (E-score)": 0.162}
{"SEQ": "CACCCCTC", "ASSAYED_SYSTEM": "SIX1-Q177R homeodomain (human, UniProt Q15475 108-198, Q177R)", "binding signal (E-score)": 0.393}

GCGAGACA yielded binding signal of 0.249

Lab note: TGTACACA gave binding signal of 0.353

binding signal measured on GTGGGTCA = 0.166

So, CGTACACA ? Its binding signal was 0.268

Form field binding signal, entry AGGATCCC : 0.155

sequence GTGAGCAC , binding signal observed: 0.159

Noted for GGATCCCC : its binding signal reads 0.298

Reported binding signal of ATGAACAC : 0.4

---

Target: SIX1-Q177R homeodomain (human, UniProt Q15475 108-198, Q177R)
Sequence: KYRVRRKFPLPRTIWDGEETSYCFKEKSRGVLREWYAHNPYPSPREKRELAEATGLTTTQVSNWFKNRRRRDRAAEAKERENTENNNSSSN
Assay: universal protein binding microarray; Universal all-10-mer PBM (8x60K, AMADID 030236), 300 nM GST-tagged protein, Alexa Fluor 488 anti-GST; buffer, salt, pH and temperature not stated (as in Berger); high values mean tight binding
Conditions: protein: ivt; tags: N-terminal GST; dsDNA, one strand shown
Over roughly 33,000 sequences, “e-score” has its median near -0.05; the highest 2% begin near 0.38. Only a selection was taken, and the highest values are over-represented in it overall.
Catalogue of binding signal readings, one per entry.
Supply the numeric figure in E-score, leaving out any unit text.

Recorded results for 8 sequences are shown here.
{"SEQ": "CCACCCCA", "binding signal [E-score]": 0.267}
{"SEQ": "GCACCCAC", "binding signal [E-score]": 0.194}
{"SEQ": "ACGCCACC", "binding signal [E-score]": 0.194}
{"SEQ": "ACCCCTCA", "binding signal [E-score]": 0.289}
{"SEQ": "GCGTGATA", "binding signal [E-score]": 0.173}
{"SEQ": "ACCCCCAA", "binding signal [E-score]": 0.312}
{"SEQ": "TGTATCAA", "binding signal [E-score]": 0.158}
{"SEQ": "CACCCGAG", "binding signal [E-score]": 0.297}

Tested system SIX1-Q177R homeodomain (human, UniProt Q15475 108-198, Q177R); binding signal recorded for CCCCTCTA was 0.251

Sample ACTCTACA , system: SIX1-Q177R homeodomain (human, UniProt Q15475 108-198, Q177R). Its binding signal is 0.296

Measured on SIX1-Q177R homeodomain (human, UniProt Q15475 108-198, Q177R), AACACTCT has a documented binding signal of 0.35

Form: item ATTGACAC ; test system SIX1-Q177R homeodomain (human, UniProt Q15475 108-198, Q177R); binding signal: 0.438

---

Target: SIX1-Q177R homeodomain (human, UniProt Q15475 108-198, Q177R)
Sequence: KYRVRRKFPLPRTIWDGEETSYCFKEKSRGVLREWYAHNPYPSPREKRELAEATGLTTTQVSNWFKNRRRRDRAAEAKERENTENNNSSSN
Assay: universal protein binding microarray; Universal all-10-mer PBM (8x60K, AMADID 030236), 300 nM GST-tagged protein, Alexa Fluor 488 anti-GST; buffer, salt, pH and temperature not stated (as in Berger); high values mean tight binding
Details: protein: ivt; tags: N-terminal GST; dsDNA, one strand shown
In all, about 33,000 sequences were measured (“e-score”: median about -0.05, highest 2% from about 0.38 on). Only a selection was taken, and the highest values are over-represented in it overall.
Rule: 1 for binding signal not less than 0.4 E-score, -1 for anything less.

{"SEQ": "CACCCAAG", "CLASS": -1}
{"SEQ": "GTGTCAAA", "CLASS": 1}
{"SEQ": "GTGTCACA", "CLASS": 1}
{"SEQ": "GGGTCAAA", "CLASS": -1}
{"SEQ": "CCTTTACA", "CLASS": -1}

INPUT: Kindly determine if binding signal recorded for AGGCACCA is above or exactly 0.4 E-score.
OUTPUT: -1

INPUT: Hello, I need to know if CACACTAC has measured binding signal not below 0.4 E-score. Thanks!
OUTPUT: -1

INPUT: Exam item: decide whether the reported binding signal for GACACTAC is at least 0.4 E-score.
OUTPUT: 1

INPUT: I'd appreciate it if you could say whether AGTGTAAG has binding signal at least equal to 0.4 E-score.
OUTPUT: 1

INPUT: Form field: binding signal at least 0.4 E-score? Entry: ACACGGAG
OUTPUT: -1

INPUT: Can CCGTGCGA be said to have binding signal at or above 0.4 E-score?
OUTPUT: -1

INPUT: Hello, I need to know if AGACACCA has measured binding signal not below 0.4 E-score. Thanks!
OUTPUT: 1

INPUT: Does the sequence GTATCAAC have recorded binding signal that is 0.4 E-score or more?
OUTPUT: -1

INPUT: Check this sequence for binding signal at or above 0.4 E-score: CACCTGAA
OUTPUT: -1

INPUT: Please check the record CACCGAGA and state if its binding signal is at or above 0.4 E-score.
OUTPUT: -1

INPUT: Is the recorded value of binding signal equal to or greater than 0.4 E-score for this sequence? GGACACCA
OUTPUT: 1

INPUT: Please check the record CCACTGGA and state if its binding signal is at or above 0.4 E-score.
OUTPUT: -1

INPUT: Hi team, for TATTCTAA , is the recorded binding signal at or above 0.4 E-score?
OUTPUT: -1

INPUT: Is binding signal for TGTCTAAA at or above 0.4 E-score?
OUTPUT: -1

INPUT: Given ACTCCGAT , state whether its binding signal is at least 0.4 E-score.
OUTPUT: -1

INPUT: Identify whether the reported binding signal of the following sequence is 0.4 E-score or greater: ACCCTGGG
OUTPUT: -1

INPUT: Please check the record CTGATCCC and state if its binding signal is at or above 0.4 E-score.
OUTPUT: -1

INPUT: Please indicate if the recorded binding signal for CACGGCTA meets or exceeds 0.4 E-score.
OUTPUT: -1

INPUT: Form field: binding signal at least 0.4 E-score? Entry: GGAGTAAA
OUTPUT: -1

INPUT: Has GTGTCAAC a recorded binding signal greater than or equal to 0.4 E-score?
OUTPUT: 1
